# ASSAY_NAME: physchem
# Format: physicochemical
# TEST_SETTINGS: 37 °C, water, thermodynamic from solid, Soluble Niclosamide mM; ±SD

COMPOUND	solubility at 5 min, mM
O=C(Nc1ccc([N+](=O)[O-])cc1Cl)c1cc(Cl)ccc1O [Niclosamide ethanolamine, niclosamide ethanolamine]	1.06
